Entry source: the OligoGym collection

# measuredTarget: WFDC5
# protocolText: pooled miR-30 sensor sort-seq; sequence = guide strand; further: reference of the scale not given here
# testContext: shRNA
Response field class: string, computed from recorded sensor-assay potency score (higher = more potent) by ranges LOW (below -1), MID (-1 to below -0.7), HIGH (-0.7 or more)

Example cases with answers are listed next.
| sequenceString | measuredTarget | label |
| --- | --- | --- |
| TCTTCCTGCCAAAGACAGCAGG | WFDC5 | LOW |
| TGACACAGGTGGTTCATGGGGC | WFDC5 | HIGH |
| AGTCCTTGTGACACAGGTGGTT | WFDC5 | LOW |
| TGGCTGTCTTCCACGCACTGGT | WFDC5 | MID |
| TTCCTGGTCAAGGGACACTGGC | WFDC5 | LOW |
| TTTTTGCCCGAGCAGTCTGAGT | WFDC5 | LOW |
| TGTAGCAGCACTTCCTGGTCAA | WFDC5 | HIGH |
| TCTGTAGCAGCACTTCCTGGTC | WFDC5 | MID |

Determine which band this sequence sits in: TCAAGGGACACTGGCTGTCTTC
LOW

Kindly identify the class of TCTGAGTCCTTGTGACACAGGT .
HIGH

* * *

Known sensor-assay potency score (higher = more potent) of a selection of sequences
# measuredTarget: NKIRAS2
# protocolText: pooled miR-30 sensor sort-seq; sequence = guide strand
# testContext: shRNA
Lab note: jot down the number only; don't add units.

| sequenceString | numericResult |
| --- | --- |
| TTGCGTCATCTTGCTGGCCAAG | -1.52 |
| TATTGTGTCCAACCAATGCATC | -1.63 |
| TTGAGCAGCTCCACACGCTGAA | -0.404 |
| TTTGTCAATCTCCTTCTTGAGC | -1.29 |

For the sequence TGCGTCTCGATCATCTCCGAAC , what sensor-assay potency score (higher = more potent) is on record?
-1.51

Fill in: sensor-assay potency score (higher = more potent) of TTGTTCTTCCGGCTGAGGGGGA is ___
-0.774

* * *

Recorded measurements of sensor-assay potency score (higher = more potent), one per entry
# measuredTarget: SLC30A10
# protocolText: pooled miR-30 sensor sort-seq; sequence = guide strand
# testContext: shRNA
Number only, please.

| sequenceString | numericResult |
| --- | --- |
| TAACACTGCCAGTTACACGGGT | -0.383 |
| TCTGAGAATATTTTCTACCTTA | -0.0606 |
| TTTTGGGACCATCTGTAGCAGA | -0.988 |
| TTAGAAACAAGAACTTCTTTGA | 0.415 |
| TTAAGCTATGATCTCACCTGAG | -0.235 |
| TCTTTGAACACTGTATCCGCAG | -0.212 |
| TTTTGTTAAGACTTTGTCCGTG | 0.41 |

Next:
Please state recorded sensor-assay potency score (higher = more potent) (tested on SLC30A10) of TAAGCTATGATCTCACCTGAGC
-0.73

* * *

# measuredTarget: EPHX2
# protocolText: pooled miR-30 sensor sort-seq; sequence = guide strand
# testContext: shRNA
property: sensor-assay potency score (higher = more potent)
Quick one: just the number, no unit, thanks!

| sequenceString | measuredTarget | numericResult |
| --- | --- | --- |
| TGCAATATTCTTCTATTTCGGG | EPHX2 | -0.612 |

Give sensor-assay potency score (higher = more potent) (EPHX2) of the following sequence: TCTCCTTACATAACACTTCCAT
-0.551

// map TATCAGGAAGTCAAAGTGCATC to recorded sensor-assay potency score (higher = more potent) (system: EPHX2)
-1.33

Record lookup: for EPHX2, what sensor-assay potency score (higher = more potent) belongs to TCTGAAACCAGACTTCTTGAAC ?
-0.948

Notebook: pull reported sensor-assay potency score (higher = more potent) for EPHX2, entry TTCCATGCAATATTCTTCTATT
-0.473

EPHX2 / sensor-assay potency score (higher = more potent) / TGGTTCTTGGAAGTAGAGCTGG : value?
-0.725

Give sensor-assay potency score (higher = more potent) (EPHX2) of the following sequence: TCGCTTGCTCTGAAGAGGCTTT
-0.734

Query the reported sensor-assay potency score (higher = more potent) for EPHX2; item: TTTCTGGCTGAAATCGCCTTGT
-0.617

* * *

# measuredTarget: GP6
# protocolText: pooled miR-30 sensor sort-seq; sequence = guide strand
# testContext: shRNA
Think of -0.02 as a floor: if sensor-assay potency score (higher = more potent) stands on it or above, it is Yes; beneath it, No.

Answered examples (4):
| sequenceString | label |
| --- | --- |
| TTTTACACTAAGGAAAATGAAT | No |
| TTGTTTTCTAATGTGAAGGGAA | No |
| TAGCATCGGTAGGTTCCGCTGT | Yes |
| TTCGTTTGTGAATGAGACGGTC | Yes |

Kindly consider the entry below.
Has TAGCCCTGTACCATCTCTCGGG a recorded sensor-assay potency score (higher = more potent) greater than or equal to -0.02?
No

* * *

# measuredTarget: SELL
# protocolText: pooled miR-30 sensor sort-seq; sequence = guide strand
# testContext: shRNA
property: sensor-assay potency score (higher = more potent)
Please reply with the value in numeric form only.

Worked cases, sensor-assay potency score (higher = more potent) given:
| sequenceString | numericResult |
| --- | --- |
| TTGTCTCGGCAGAATCTTCTAG | -0.184 |
| TTATTGATGATTTCTACACATT | -1.76 |
| TTAATCATTGAGAAACTTTTGT | -0.0417 |
| TTTGACATATTGGACTAGGATT | -1.37 |
| TAGGATTTGACCAGATTCCAGA | -0.318 |

If you can, please state the reported sensor-assay potency score (higher = more potent) value of TTGATATAGATCTCCACGCAGT .
-0.218

Reported sensor-assay potency score (higher = more potent) for TCACTTGACAGGTTGGTTCTGG : what is it?
0.848

Reported sensor-assay potency score (higher = more potent), sequence TAATTGTCTCGGCAGAATCTTC : ____
-1.3

* * *

# measuredTarget: SNAPC2
# protocolText: pooled miR-30 sensor sort-seq; sequence = guide strand
# testContext: shRNA
property: sensor-assay potency score (higher = more potent)
Field format: numeric only.

| sequenceString | numericResult |
| --- | --- |
| TTTCAGTTCGCTGTGCTCGGCC | -0.483 |
| TAGATCTTCTCAAAGTCCACAG | -0.173 |
| AAGTACTTGTAGATCTTCTCAA | 0.257 |
| AGTACTTGTAGATCTTCTCAAA | -1.85 |
| AAGTGACATGAGCAGGTCGAGG | -1.64 |
| TCAGCTGCTGAGAGCTCGGGGC | -1.02 |
| TTCTCAGCCAGATCCGTCCAGA | -0.94 |
| TTATCTTCTCAGCCAGATCCGT | -0.528 |

Here is the next item to consider.
Need sensor-assay potency score (higher = more potent) of TATCTTCTCAGCCAGATCCGTC , thanks.
-0.959

* * *

# measuredTarget: EIF2B2
# protocolText: pooled miR-30 sensor sort-seq; sequence = guide strand
# testContext: shRNA
Classification field: condition met = sensor-assay potency score (higher = more potent) at or over -0.4; condition not met = sensor-assay potency score (higher = more potent) under -0.4.

Worked examples follow.
| sequenceString | measuredTarget | label |
| --- | --- | --- |
| TAATCTTGAGCACTCTCCGCAC | EIF2B2 | condition not met |
| TCTCTGACAACTCCGAGCCCTT | EIF2B2 | condition not met |
| TGACTCTTGACATAACGGCAAA | EIF2B2 | condition not met |
| TTATGTTTAACACACTACTGAA | EIF2B2 | condition not met |
| TAGAGTTCACTCATCAGGCGGT | EIF2B2 | condition met |
| ATAATCTTGAGCACTCTCCGCA | EIF2B2 | condition met |

Does ATCCTCTCTGACAACTCCGAGC have a reported sensor-assay potency score (higher = more potent) of at least -0.4?
condition not met

Determine whether measured sensor-assay potency score (higher = more potent) meets or exceeds -0.4 for TTTAACACACTACTGAACCAGA
condition met

Decide: sensor-assay potency score (higher = more potent) of TTGACTCTTGACATAACGGCAA >= -0.4?
condition met

// inclusive: sensor-assay potency score (higher = more potent) at least -0.4? input: TATGAAATGAGTCTTCTTCATT
condition not met

* * *

The following sequences are shown together with reported sensor-assay potency score (higher = more potent) values.
# measuredTarget: PRR5
# protocolText: pooled miR-30 sensor sort-seq; sequence = guide strand
# testContext: shRNA
Give the figure by itself; no unit, no explanation.

| sequenceString | numericResult |
| --- | --- |
| TCACTGAAGAAGAAGTCCCAGG | -0.956 |
| TTCAGAATCCGAGTCCACGGAC | -1.2 |
| TGTTGTAGCTCTTGGAGCGCAC | -0.639 |
| TCGTGGGGTACAGTCTGCTGGG | -0.767 |
| TCTAGCTTCACACTGAGGGTGA | 0.389 |

Request the reported sensor-assay potency score (higher = more potent) associated with TAGCTTCACACTGAGGGTGATG
-1.08

Field request: sensor-assay potency score (higher = more potent) | item: ATCTCCGACACAGAGTGCCTGC
-0.984
